- experimental.details: in vivo
- condition.notes: female, Sprague-Dawley, rat, iv, 8.8 mg
Positions of bridges follow the written chain, without caps; N, C: chain ends. Non-standard residues stand in square brackets, D forms with d. Residues, ends and D or L forms follow the SMILES beside them.
metric.name: half-life

Given the entry CC[C@@H](C)[C@H]1NC(=O)[C@@H](CCC(N)=O)NC(=O)[C@H](N)CSSC[C@H](C(N)=O)NC(=O)[C@@H](CC(C)C)NC(=O)[C@@H](CC(=O)O)NC(=O)[C@H]2CCCN2C(=O)[C@@H](CCCCN)NC(=O)[C@@H](CCC(N)=O)NC(=O)[C@@H](CCCCN)NC(=O)[C@@H](Cc2c[nH]c3ccccc23)NC1=O (H-[dC][dQ][dI][dW][dK][dQ][dK][dP][dD][dL][dC]-NH2; disulfide 1-11; N-terminus assumed) , report its measured half-life.
~10 min

---

- experimental.target: recombinant human chemokine receptors (CCR1-5, CXCR4, CXCR1, CXCR2)
- experimental.details: Binding of biotin-labeled peptides to chemokine receptor expressing HOS/CHO lines
- condition.notes: no evidence for any binding; read-out: affinity of any binding to recombinant human chemokine receptors
pKd: −log10 of the molar value.
metric.name: pKd

Given the entry EICADPKQKWVQ [peptide 3(1-12)[MCP-1]] , report its measured pKd.
< 5.00

---

- Test system: TGFβ1 induced THP-1 migration
- experimental.details: THP-1 trans-well migration assay, TGFβ1 as non-chemokine control
- Assay type: cell-based, human
- condition.notes: n.s. = no statistically significant inhibition (p > 0.05)
metric.name: ED50 versus TGFβ1, inhibition of THP-1 migration

EICADP [Peptide 3[1-6]] ... n.s.
EICADPKQKWVQ [peptide 3(1-12)[MCP-1]] ... n.s.
EICLDPKQKWVQ [Leu4peptide 3] ... n.s.

---

- experimental.details: in vivo
- condition.notes: female, Sprague-Dawley, rat, iv, 8.8 mg, administered dose recovered in urine over 24 hours, rats, 8.8 mg i.v.
Positions of bridges follow the written chain, without caps; N, C: chain ends. Non-standard residues stand in square brackets, D forms with d. Residues, ends and D or L forms follow the SMILES beside them.
metric.name: dose excreted

Given the entry CC[C@@H](C)[C@H]1NC(=O)[C@@H](CCC(N)=O)NC(=O)[C@H](N)CSSC[C@H](C(N)=O)NC(=O)[C@@H](CC(C)C)NC(=O)[C@@H](CC(=O)O)NC(=O)[C@H]2CCCN2C(=O)[C@@H](CCCCN)NC(=O)[C@@H](CCC(N)=O)NC(=O)[C@@H](CCCCN)NC(=O)[C@@H](Cc2c[nH]c3ccccc23)NC1=O (H-[dC][dQ][dI][dW][dK][dQ][dK][dP][dD][dL][dC]-NH2; disulfide 1-11; N-terminus assumed) , report its measured dose excreted.
~70%

---

- experimental.target: 5-HT1a receptors (Homo sapiens, UniProt P08908)
- Construct: purchased RBI/Sigma S-160
- Sequence (P08908 whole entry): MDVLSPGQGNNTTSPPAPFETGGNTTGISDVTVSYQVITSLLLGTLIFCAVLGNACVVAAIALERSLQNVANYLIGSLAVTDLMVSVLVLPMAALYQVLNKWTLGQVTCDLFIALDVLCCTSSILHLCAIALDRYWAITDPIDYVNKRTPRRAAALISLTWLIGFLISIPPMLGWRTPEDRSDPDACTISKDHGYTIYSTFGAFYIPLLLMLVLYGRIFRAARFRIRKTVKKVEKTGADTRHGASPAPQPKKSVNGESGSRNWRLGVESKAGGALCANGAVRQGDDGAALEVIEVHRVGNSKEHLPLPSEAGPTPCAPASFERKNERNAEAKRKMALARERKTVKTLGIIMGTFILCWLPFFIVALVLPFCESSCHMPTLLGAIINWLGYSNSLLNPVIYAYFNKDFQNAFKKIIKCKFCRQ
- experimental.details: 5HT1a serotonin receptor membrane binding (3H-8-OH-DPAT)
- condition.notes: 100 μM highest concentration tested
metric.name: pEC50
Please note pEC50 is a logarithmic value: minus log10 of concentration in mol/L. Answer with that number alone.

Given the entry C=CCCCCCCCCC(=O)N[C@H]1CCC(=O)NC1=O [A-I (NR58.4)] , report its measured pEC50.
4.10

---

- System: MCP-1 induced THP-1 migration
- experimental.details: THP-1 trans-well migration assay, MCP-1 as chemoattractant
- Assay type: cell-based, human
- condition.notes: listed as NR58.4 (A-I); read-out: ED50 versus MCP-1 induced chemotaxis of THP-1
metric.name: pEC50
Please note pEC50 is a logarithmic value: minus log10 of concentration in mol/L. Answer with that number alone.

Given the entry C=CCCCCCCCCC(=O)N[C@H]1CCC(=O)NC1=O [A-I (NR58.4)] , report its measured pEC50.
8.70

---

- experimental.target: Duffy Antigen Receptor for Chemokines (DARC) (Homo sapiens, UniProt Q16570)
- Sequence (Q16570 1-336): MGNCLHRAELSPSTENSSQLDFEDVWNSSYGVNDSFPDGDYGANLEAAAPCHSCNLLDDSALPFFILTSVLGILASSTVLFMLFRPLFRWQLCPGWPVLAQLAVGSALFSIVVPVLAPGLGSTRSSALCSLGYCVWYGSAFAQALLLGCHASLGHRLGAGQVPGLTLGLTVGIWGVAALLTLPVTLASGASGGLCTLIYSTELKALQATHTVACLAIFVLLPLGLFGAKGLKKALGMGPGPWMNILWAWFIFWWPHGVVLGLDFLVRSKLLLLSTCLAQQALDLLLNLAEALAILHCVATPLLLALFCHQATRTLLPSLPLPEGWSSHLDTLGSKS
- experimental.details: DARC binding: competition with 125I-MCP-1 on red blood cells
- condition.notes: association constant / affinity for DARC, red blood cells
pKd: −log10 of the molar value. No end group written: not given here.
metric.name: pKd

Given the entry SYRRITSSKCPKEAV [peptide 2(1-15)[MCP-1]] , report its measured pKd.
> 6.30
